- Tested on: HepG2 Srxn1-GFP reporter cells (+30 nM CDDO-Me)
- ASSAY INFO: Srxn1-GFP intensity median modified Z-score relative to plate median; higher = stronger NRF2 / oxidative stress reporter activation, active = hit call of the paper
- MEASUREMENT CONTEXT: 10 µM; exposure time: 24h
Out of some 2,300 compounds screened, about 330 (14%) showed activity. These entries were drawn from the full list.
Rule: true for Srxn1-GFP intensity median modified Z-score not less than -0.1, false for anything less.

COMPOUND	CLASSIFICATION
COc1ccc2c3c([nH]c2c1)C(C)=NCC3 [euspeclibcmpd2276]	true

Has C[C@H]1O[C@H](O[C@H]2[C@H](O)[C@@H](O)[C@@H](O)[C@H](O)[C@@H]2O)[C@@H](N)C[C@@H]1N=C(N)C(=O)O [euspeclibcmpd1430] a recorded Srxn1-GFP intensity median modified Z-score greater than or equal to -0.1? false

Threshold query (Srxn1-GFP intensity median modified Z-score >= -0.1) on CC=C(C)C(=O)O[C@H]1CC[C@@]2(C)[C@@H]3CC[C@H]4[C@]5(O)C[C@H](O)[C@@]6(O)[C@@H](CN7C[C@@H](C)CC[C@H]7[C@@]6(C)O)[C@]5(O)C[C@@]42O[C@]13O [euspeclibcmpd1469] true

---

Overview of recorded Srxn1-GFP intensity median modified Z-score for various compounds
- Tested on: HepG2 Srxn1-GFP reporter cells (+30 nM CDDO-Me)
- ASSAY INFO: Srxn1-GFP intensity median modified Z-score relative to plate median; higher = stronger NRF2 / oxidative stress reporter activation, active = hit call of the paper
- MEASUREMENT CONTEXT: 10 µM; exposure time: 24h
Screen size: about 2,300 compounds; about 330 (14%) showed activity. Not all results are given here.
Respond numerically, and do not add a unit to the figure.

COMPOUND	NUMERIC VALUE
O=c1c(O)c(-c2ccc(O)c(O)c2)oc2c(O)c(O)cc(O)c12	-0.455
O=[N+]([O-])c1cc([As](=O)(O)O)ccc1O	14.6
O=[N+]([O-])c1ccc([As](=O)(O)O)cc1	0.0717
CC(C)c1cc2c(c(O)c1O)[C@@]1(C(=O)O)CCCC(C)(C)C1CC2 (some centres undefined)	5.33

Answer with reported Srxn1-GFP intensity median modified Z-score of `CCOP(=S)(OCC)Oc1ccc2c(C)c(Cl)c(=O)oc2c1` 1.02

Identify measured Srxn1-GFP intensity median modified Z-score associated with C#C[C@]1(O)CCC2C3CC=C4CC(=O)CCC4C3CC[C@@]21C (some centres undefined) [euspeclibcmpd2279] 0.0789

Output measured Srxn1-GFP intensity median modified Z-score for this item: `CC(=O)c1c(O)cc(C)oc1=O` 15.5

Specify Srxn1-GFP intensity median modified Z-score for C[N+]12CC[C@@]34c5ccccc5N5C(=O)CC6OCC=C(C1)[C@H](CC32)[C@@H]6C54 (some centres undefined) and stop. -0.091

Retrieve Srxn1-GFP intensity median modified Z-score measured for C#C[C@]1(O)CCC2C3CC=C4CC(=O)CCC4C3CC[C@@]21C (some centres undefined) [euspeclibcmpd2269] and print it. 1.21

---

- System: HepG2 Srxn1-GFP reporter cells (+30 nM CDDO-Me)
- ASSAY INFO: Srxn1-GFP intensity median modified Z-score relative to plate median; higher = stronger NRF2 / oxidative stress reporter activation, active = hit call of the paper
- MEASUREMENT CONTEXT: 10 µM; exposure time: 24h
In all, about 2,300 compounds went through this assay and about 330 (14%) showed activity. Only a sample is shown.
Would you mind labelling by Srxn1-GFP intensity median modified Z-score? At or over -0.2 is MET, under is NOT MET.

Please review the following examples before continuing.
COMPOUND	TESTED ON	CLASSIFICATION
COc1cc2c(cc1OC)[C@@]13CCN4CC5=CCOC6CC(=O)N2C1[C@H]6[C@H]5C[C@H]43 (stereo not given in full) [euspeclibcmpd1053]	HepG2 Srxn1-GFP reporter cells (+30 nM CDDO-Me)	MET
CC(C)c1ccc2c(c1O)CCC1c3coc(O)c3CC[C@]21C (stereo not given in full) [euspeclibcmpd2379]	HepG2 Srxn1-GFP reporter cells (+30 nM CDDO-Me)	NOT MET
Cc1nc(=N)c(CNC(=O)N(CCCl)N=O)c[nH]1 [euspeclibcmpd1167]	HepG2 Srxn1-GFP reporter cells (+30 nM CDDO-Me)	MET
NCCCc1c[nH]c2ccccc12	HepG2 Srxn1-GFP reporter cells (+30 nM CDDO-Me)	MET
CNNC [euspeclibcmpd2278]	HepG2 Srxn1-GFP reporter cells (+30 nM CDDO-Me)	NOT MET

Assess whether reported Srxn1-GFP intensity median modified Z-score for Cc1c[nH]cn1 [euspeclibcmpd2111] sits at -0.2 or higher. MET

Srxn1-GFP intensity median modified Z-score >= -0.2 for CCNC1(c2cccs2)CCCCC1=O (stereo not given) [euspeclibcmpd629] ? MET

Please indicate if the recorded Srxn1-GFP intensity median modified Z-score for CC(=O)NC1CCSC1=O (stereo not given) [euspeclibcmpd1125] meets or exceeds -0.2. MET

Check the entry O=c1[nH]c(=O)n(Cl)c(=O)n1Cl [euspeclibcmpd2375] : does Srxn1-GFP intensity median modified Z-score equal or exceed -0.2? MET

Check if Srxn1-GFP intensity median modified Z-score >= -0.2 (inclusive). Item: C[C@@H]1CC(Cl)CCC1C(=O)OC(C)(C)C (stereo not given in full) [euspeclibcmpd1756] MET
